- Test system: Rattus norvegicus
- method.description: Anti-inflammatory activity inRattus norvegicus albino (rat) assessed as inhibition of carrageenan-induced paw edema at 100 mg/kg, po administered 2 hr prior challenge measured after 1 hr post challenge
- Type: functional
Kindly return Criterion met if reported inhibition in vivo at 100 mg/kg is no lower than 40%; return Criterion not met if it is lower.

Observe how each entry below is paired with its result.
Cc1cccc(NC(=S)NNC(=O)Cn2nc(C)cc2C)c1
Criterion not met
Cc1cccc(-n2c(Cn3nc(C)cc3C)n[nH]c2=S)c1
Criterion not met

IN: # check: inhibition in vivo at 100 mg/kg of Cc1cc(-c2ccc(Cl)cc2)n(Cc2n[nH]c(=S)o2)n1 is greater than or equal to 40%
OUT: Criterion not met

IN: Record Cc1cc(C)n(CC(=O)NNC(=S)Nc2ccc([N+](=O)[O-])cc2)n1 ; criterion: inhibition in vivo at 100 mg/kg no lower than 40%. Met?
OUT: Criterion met

IN: Reported inhibition in vivo at 100 mg/kg at or above 40%? COc1ccc(NC(=S)NNC(=O)Cn2nc(C)cc2C)cc1
OUT: Criterion met

IN: inhibition in vivo at 100 mg/kg >= 40% for Cc1cc(-c2ccc(Cl)cc2)n(-c2ccc(S(N)(=O)=O)cc2)n1 ?
OUT: Criterion met

IN: Has Cc1cc(C)n(Cc2n[nH]c(=S)n2-c2ccc([N+](=O)[O-])cc2)n1 a recorded inhibition in vivo at 100 mg/kg greater than or equal to 40%?
OUT: Criterion not met

* * *

- Tested on: Rattus norvegicus
- method.description: Anti-inflammatory activity inRattus norvegicus albino (rat) assessed as inhibition of carrageenan-induced paw edema at 100 mg/kg, po administered 2 hr prior challenge measured after 1 hr post challenge
- Type: functional
Item-by-item account of inhibition in vivo at 100 mg/kg
Quick reminder: number only, in %, skip the unit.

Please review the following examples before continuing.
COc1ccc2c(c1)c(CC(=O)O)c(C)n2C(=O)c1ccc(Cl)cc1 [INDOMETHACIN]
40.1
CCCNc1nnc(Cn2nc(C)cc2-c2ccccc2)s1
42.2
Cc1cc(-c2ccccc2)n(Cc2n[nH]c(=S)o2)n1
34.2

Reported inhibition in vivo at 100 mg/kg ( Cc1cc(C)n(Cc2n[nH]c(=S)o2)n1 ) = 21.5
